Listed next: entries and their corresponding pKi.
# assayedTarget: 5-hydroxytryptamine receptor 2A (Rattus norvegicus, UniProt P14842)
# Sequence (P14842 whole entry): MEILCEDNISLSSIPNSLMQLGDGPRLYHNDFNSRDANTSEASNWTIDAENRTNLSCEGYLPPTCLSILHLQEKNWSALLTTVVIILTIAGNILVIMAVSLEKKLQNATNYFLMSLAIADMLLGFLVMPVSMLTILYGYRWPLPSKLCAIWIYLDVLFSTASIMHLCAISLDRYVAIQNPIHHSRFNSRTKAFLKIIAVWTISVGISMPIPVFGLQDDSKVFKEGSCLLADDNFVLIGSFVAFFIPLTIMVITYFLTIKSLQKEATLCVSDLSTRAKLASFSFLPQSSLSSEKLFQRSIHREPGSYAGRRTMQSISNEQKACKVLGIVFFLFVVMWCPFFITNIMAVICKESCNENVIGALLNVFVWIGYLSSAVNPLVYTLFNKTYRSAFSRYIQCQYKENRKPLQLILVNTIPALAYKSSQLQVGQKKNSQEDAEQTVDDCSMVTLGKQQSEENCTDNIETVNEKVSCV
Hey, just a heads up that pKi is the negative log base 10 of the concentration in molar.

O=C1NC2(CCCc3ccccc32)C(=O)N1CCCN1CCN(c2cccc(Cl)c2)CC1 (racemic) :: 7.46
COc1ccccc1N1CCN(CCCN2C(=O)NC3(CCCc4ccccc43)C2=O)CC1 (racemic) :: 6.55
O=C1NC2(CCCc3ccccc32)C(=O)N1CCCN1CCN(c2ccccc2)CC1 (racemic) :: 7.60

From here, focus on the item given below.
Reported pKi for O=C1NC2(CCc3ccccc32)C(=O)N1CCCN1CCN(c2cccc(Cl)c2)CC1 (racemic) : what is it?
7.28
